The measured values listed here are drawn from ChEMBL document CHEMBL2417509.

Tested on: TK-10
Experiment: Cytotoxicity against human TK10 cells after 2 days by sulforhodamine B assay
Format: functional
Details: TK-10, 48 h
READOUT KIND: LC50 (µM)
Give bare numbers, in µM.

[[record]]
chemical_smiles = "CC/C(=C(/c1ccc(OCCN(C)C)cc1)c1ccc(OC(=O)CCC(=O)C2=C(C)/C(=C/c3[nH]c(-c4ccc[nH]4)cc3OC)N=C2C)cc1)c1ccccc1"
readout_kind = "LC50"
number = 41.7


Note: attention shifts to another entry.
Which measured LC50 value corresponds to `CCC(=C(c1ccc(OCCN(C)C)cc1)c1ccc(OC(=O)CCCCC(=O)C2=C(C)/C(=C/c3[nH]c(-c4ccc[nH]4)cc3OC)N=C2C)cc1)c1ccccc1` ?
50.1
